- assay.details: in vitro
- condition.label: sheep, % cell viability
metric.name: viability at 1 µM (%)
Return type: number; implicit unit %.

Known viability at 1 µM results, listed for orientation:
COc1ccc(-c2ccc(-c3nc4ccc(C(=N)N)cc4[nH]3)s2)cc1    108
c1ccc2[nH]c(-c3ccc(-c4ccc(C5=NCCN5)cc4)o3)nc2c1    96
c1ccc(-c2ccc(-c3nc4ccc(C5=NCCN5)cc4[nH]3)s2)cc1    134
N=C(N)c1ccc2nc(-c3cccc(-c4nc5ccc(C(=N)N)cc5[nH]4)n3)[nH]c2c1    127
Cn1c(-c2nc3ccc(C(=N)N)cc3[nH]2)ccc1-c1nc2ccc(C(=N)N)cc2[nH]1    188
N=C(N)c1ccc2nc(-c3ccc(-c4ccc([N+](=O)[O-])cc4)o3)[nH]c2c1    120

# lookup: viability at 1 µM of "N=C(N)c1ccc2nc(-c3ccc(-c4ccc(OCc5cn(CCc6cccc7ccccc67)nn5)cc4)s3)[nH]c2c1"
120

# lookup: viability at 1 µM of "N=C(N)c1ccc(-c2ccc(-c3ccc(-c4nc5ccc(C(=N)N)cc5[nH]4)cc3)s2)cc1"
180
